# key: entry, value: exchange rate vs Pos peptide
- target of assay: HLA-A*24:02 (human)
- assay summary: UV peptide exchange + HLA class I ELISA
- cond: remark: other sources report otherwise
Field: numeric (%). Do not append units.

- binder: "YQFTFDLLI (here or on the partner: biotinylated heavy chain) [P48 9-mer peptide (AR.p.H875Y)]"
  observable: "exchange rate vs Pos peptide"
  result number: 0.1
- binder: "IPVLTRWPL (here or on the partner: biotinylated heavy chain) [P19 9-mer peptide (TMEM222-LOC644961 fusion)]"
  observable: "exchange rate vs Pos peptide"
  result number: 0.1
- binder: "YCMAAPMGL (here or on the partner: biotinylated heavy chain) [P76 9-mer peptide (AR-V3 splice variant)]"
  observable: "exchange rate vs Pos peptide"
  result number: -0.5

query: What exchange rate vs Pos peptide value was documented for this binder, RAKCKFSIL (here or on the partner: biotinylated heavy chain) [P56 9-mer peptide (SPOP(F102C))] ?
result: 0.5

query: What exchange rate vs Pos peptide value was documented for this binder, RAVRRMNTF (here or on the partner: biotinylated heavy chain) [P17 9-mer peptide (MSMB-NOCA4 fusion)] ?
result: 0.1

query: What exchange rate vs Pos peptide value was documented for this binder, CPMSRLRLA (here or on the partner: biotinylated heavy chain) [P46 9-mer peptide (TP53 (R213D) frameshift)] ?
result: -0.4

query: What exchange rate vs Pos peptide value was documented for this binder, LLERNSFEV (here or on the partner: biotinylated heavy chain) [P73 9-mer peptide (TP53 (G266E))] ?
result: 0.5

query: What exchange rate vs Pos peptide value was documented for this binder, FLFLLLPLS (here or on the partner: biotinylated heavy chain) [P87 9-mer peptide (AR-Intron splice variant)] ?
result: 0.2

Reference for the values: patent US20200222478A1
